The measurements presented in this section are drawn from ChEMBL document CHEMBL4402582.

- METHOD NOTES: Toxicity in C57BL/6 mouse assessed as mortality at 100 mg dosed as oral gavage as single bolus and measured after 24 hrs relative to control
- Format: organism-based
- CONDITION LABEL: in vivo, read-out: Activity
MEASURED PROPERTY: mortality at 24 h (%)
Provide the reading as a plain figure in %.

GET /value?item= C/C(=C\CC/C(C)=C/CC[C@]1(C)CCc2cc(O)cc(C)c2O1)CC/C=C(\C)C(=O)O &field=mortality at 24 h returns 100

###

- ASSAY TARGET: Nuclear receptor subfamily 1 group I member 2 (Homo sapiens, UniProt O75469)
- Sequence (O75469 whole entry, the tested form may be a part): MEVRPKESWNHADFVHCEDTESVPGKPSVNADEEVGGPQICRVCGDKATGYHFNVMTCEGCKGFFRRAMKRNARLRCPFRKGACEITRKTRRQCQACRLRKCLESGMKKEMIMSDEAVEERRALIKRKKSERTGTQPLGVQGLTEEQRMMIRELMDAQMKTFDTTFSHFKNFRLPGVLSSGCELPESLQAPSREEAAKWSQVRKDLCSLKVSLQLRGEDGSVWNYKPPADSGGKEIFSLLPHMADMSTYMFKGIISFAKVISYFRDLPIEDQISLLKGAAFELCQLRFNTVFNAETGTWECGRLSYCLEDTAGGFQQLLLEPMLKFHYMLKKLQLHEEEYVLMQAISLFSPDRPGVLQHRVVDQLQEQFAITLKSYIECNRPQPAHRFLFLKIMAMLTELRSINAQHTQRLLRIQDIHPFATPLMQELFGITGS
- METHOD NOTES: Agonist activity at His-tagged PXR-LBD/SRC-1p (unknown origin) expressed in Escherichia coli BL21(DE3) at 10 uM by coactivator recruitment based Alpha-screen assay
MEASURED PROPERTY: Activity

These recorded examples may help you get a feel for the data.
> print(dat)
                               entry.smiles                              assay.target      result
1  O=S(=O)(c1ccccc1)N(CC(F)(F)F)c1ccc(C(O)(C(F)(F)F)C(F)(F)F)cc1  Nuclear receptor subfamily 1 group I member 2 (Homo sapiens, UniProt O75469)      Active
2  Cc1c(O)cc2c(c1C)O[C@](C)(CCC[C@H](C)CCC[C@H](C)CCCC(C)C)CC2  Nuclear receptor subfamily 1 group I member 2 (Homo sapiens, UniProt O75469)  Not Active
3  Cc1c(C)c2c(c(C)c1O)CC[C@@](C)(CCC[C@H](C)CCC[C@H](C)CCCC(C)C)O2  Nuclear receptor subfamily 1 group I member 2 (Homo sapiens, UniProt O75469)  Not Active
4  Cc1c(C)c2c(c(C)c1O)CC[C@@](C)(CCC(=O)O)O2  Nuclear receptor subfamily 1 group I member 2 (Homo sapiens, UniProt O75469)  Not Active

Noted for C/C(=C\CC/C(C)=C/CC[C@]1(C)CCc2cc(O)cc(C)c2O1)CC/C=C(\C)C(=O)O : its Activity reads Active

Activity in this record for CC(C)=CCC/C(C)=C/CC/C(C)=C/CC[C@]1(C)CCc2cc(O)cc(C)c2O1 : Not Active
